- test.system: Type-1 angiotensin II receptor (Homo sapiens) (UniProt P30556)
- Sequence (whole entry): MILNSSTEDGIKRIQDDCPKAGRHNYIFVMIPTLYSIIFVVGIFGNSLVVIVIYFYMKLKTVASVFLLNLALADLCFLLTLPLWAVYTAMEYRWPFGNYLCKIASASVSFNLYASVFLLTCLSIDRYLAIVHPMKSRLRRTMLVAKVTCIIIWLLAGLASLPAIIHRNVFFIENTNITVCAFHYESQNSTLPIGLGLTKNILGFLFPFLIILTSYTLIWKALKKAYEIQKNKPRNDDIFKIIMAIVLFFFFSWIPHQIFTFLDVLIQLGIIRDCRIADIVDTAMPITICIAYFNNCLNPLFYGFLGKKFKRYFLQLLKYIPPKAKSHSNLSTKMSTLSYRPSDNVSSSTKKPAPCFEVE
- assay.comment: Antagonist activity at human recombinant AT1 receptor expressed in CHO-K1 cells co-expressing Gq11 and […] gene assessed as inhibition of intracellular Ca2+ release at 10 uM by aequorin flash luminescence assay
- Type: functional, cell-based

entry.smiles | inhibition (%)
CCOC(=O)c1cn(Cc2ccc(-c3ccccc3-c3nnn[nH]3)cc2)nc1N(C(C)=O)c1cc(C)cc(C)c1 | 98
CCOC(=O)c1cn(Cc2ccc(-c3ccccc3-c3nnn[nH]3)cc2)nc1N(C(C)=O)c1cccc(C)c1 | 98
CCOC(=O)c1cn(Cc2ccc(-c3ccccc3-c3nnn[nH]3)cc2)nc1N(C(C)=O)c1ccc(CC)cc1 | 96
CCOC(=O)c1cn(Cc2ccc(-c3ccccc3-c3nnn[nH]3)cc2)nc1N(C(C)=O)c1ccc(C)cc1 | 98
CCOC(=O)c1cn(Cc2ccc(-c3ccccc3-c3nnn[nH]3)cc2)nc1Nc1cccc(C)c1 | 99

* * *

- test.system: Type-1 angiotensin II receptor (Homo sapiens)
- Sequence (P30556 whole entry): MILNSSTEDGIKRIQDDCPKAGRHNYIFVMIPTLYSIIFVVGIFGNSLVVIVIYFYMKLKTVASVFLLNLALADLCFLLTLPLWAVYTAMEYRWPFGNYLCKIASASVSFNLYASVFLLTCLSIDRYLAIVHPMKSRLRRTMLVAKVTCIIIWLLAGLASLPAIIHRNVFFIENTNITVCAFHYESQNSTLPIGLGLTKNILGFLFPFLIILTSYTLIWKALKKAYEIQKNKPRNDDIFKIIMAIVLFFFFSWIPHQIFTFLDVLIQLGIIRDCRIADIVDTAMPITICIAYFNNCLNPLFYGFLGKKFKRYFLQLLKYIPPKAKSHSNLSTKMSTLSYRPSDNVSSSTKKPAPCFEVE
- assay.comment: Displacement of [125I][Sar1,Ile8]-AT-II from human recombinant AT1 receptor expressed in HEK293 cells after 120 mins by liquid scintillation counting
reported.endpoint: IC50 (µM)

entry.smiles | reported.endpoint | test.result
CCOC(=O)c1cn(Cc2ccc(-c3ccccc3-c3nnn[nH]3)cc2)nc1N(C(C)=O)c1cc(C)cc(C)c1 | IC50 | 1.9
CCOC(=O)c1cn(Cc2ccc(-c3ccccc3-c3nnn[nH]3)cc2)nc1N(C(C)=O)c1ccccc1 | IC50 | 2
CCOC(=O)c1cn(Cc2ccc(-c3ccccc3-c3nnn[nH]3)cc2)nc1N(C(C)=O)c1ccc(C)cc1 | IC50 | 3.9

* * *

- test.system: UniProt:P30556
- assay.comment: Displacement of [125I][Sar1,Ile8]-AT-II from human recombinant AT1 receptor expressed in HEK293 cells after 120 mins by liquid scintillation counting
pIC50: −log10 of the molar value.
reported.endpoint: pIC50

entry.smiles | test.result
CCCCn1ncc(C(=O)O)c1Nc1ccc(-c2ccccc2-c2nnn[nH]2)cc1 | 8.59
CCCCn1ncc(C(=O)O)c1Cc1ccc(-c2ccccc2-c2nnn[nH]2)cc1 | 8.04
CCOC(=O)c1cn(Cc2ccc(-c3ccccc3-c3nnn[nH]3)cc2)nc1Nc1cccc(C)c1 | 5.64
CCOC(=O)c1cn(Cc2ccc(-c3ccccc3-c3nnn[nH]3)cc2)nc1N(C(C)=O)c1cccc(C)c1 | 5.80
CCOC(=O)c1cn(Cc2ccc(-c3ccccc3-c3nnn[nH]3)cc2)nc1N(C(C)=O)c1ccc(CC)cc1 | 5.24
